# Protocol summary: stimulators of insulin release from INS-1E, primary screen, cell-based, 5 mM glucose, NPC library (AID 1117329); note: reference of the scale not given here
# Reported conditions: rat INS-1E insulin secretion, at 10 µM, hits give high values
Calls of active or inactive are those of the source.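 Rule for the calls: active = compound raises insulin release from rat beta cells at 5 mM glucose, no numeric limit stated; inactive = the rest.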 Residues, ends and D or L forms follow the SMILES beside them.
Measurement name: insulin secretion stimulation

QUERY: State the recorded insulin secretion stimulation for this entry: CCn1cc(C(=O)O)c(=O)c2cc(F)c(N3CCNCC3)cc21
RESULT: 1.1% (inactive)

QUERY: Same thing, different compound: Cc1cccc(OCC(O)CNC(C)(C)C)c1C (configuration not stated)
RESULT: 1% (inactive)

QUERY: Now the same for Nc1cc(C(F)(F)F)ccc1S
RESULT: 4.4% (inactive)

QUERY: Same question for Cc1c(C)c2c(c(C)c1OC(=O)c1cccnc1)CC[C@@](C)(CCC[C@H](C)CCC[C@H](C)CCCC(C)C)O2 please.
RESULT: -0.2% (inactive)

QUERY: Another compound to check: C[C@H](N)C(=O)N[C@@H](C)C(=O)NC1[C@H]2CN(c3nc4c(cc3F)c(=O)c(C(=O)O)cn4-c3ccc(F)cc3F)C[C@@H]12 (some centres not stated)
RESULT: 3.4% (inactive)

QUERY: Entry Cc1nc([N+](=O)[O-])cn1-c1ccc([N+](=O)[O-])cc1 please
RESULT: 2% (inactive)

QUERY: Also CCN(CC)CCOC(=O)c1ccc(N)cc1 ?
RESULT: 0.1% (inactive)

QUERY: And then NC[C@H]1O[C@H](O[C@H]2[C@H](O[C@@H]3O[C@H](CO)[C@@H](O)[C@H]3O)C(O)[C@H](N)C[C@@H]2N)[C@H](N)[C@@H](O)[C@@H]1O (some centres not stated) , what is it?
RESULT: 1.4% (inactive)

QUERY: // query: COc1cc(C(=O)OC(COCCC(C)C)CN2CCOCC2)cc(OC)c1OC (configuration not stated)
RESULT: 1.9% (inactive)

QUERY: Check N[C@@H]1CONC1=O too.
RESULT: 1.4% (inactive)

QUERY: Repeat for the following compound: CC(C)(C)CC(C)(C)c1ccc(O)c(-n2nc3ccccc3n2)c1
RESULT: -1% (inactive)

QUERY: How about this compound: O=C(CCCN1CC=C(n2c(=O)[nH]c3ccccc32)CC1)c1ccc(F)cc1
RESULT: 2.7% (inactive)

QUERY: Try CCCCCCCCCCCCCCCC[N+](C)(C)CC next.
RESULT: 0.7% (inactive)

QUERY: Check CC(O)CCCCn1c(=O)c2c(ncn2C)n(C)c1=O (configuration not stated) too.
RESULT: 3.75% (inactive)

QUERY: What do you have for COc1ccc(CC2c3cc(OC)c(OC)cc3CCN2CCC(=O)OCCCCCOC(=O)CCN2CCc3cc(OC)c(OC)cc3C2Cc2ccc(OC)c(OC)c2)cc1OC (configuration not stated) ?
RESULT: 2.2% (inactive)

QUERY: Next record, please: C[C@H]1C[C@H]2[C@@H]3CCC4=CC(=O)C=C[C@]4(C)[C@@]3(Cl)[C@@H](O)C[C@]2(C)[C@@]1(O)C(=O)CO
RESULT: 6.9% (inactive)

QUERY: Input CCCCNc1ccc(C(=O)OCCN(CC)CC)cc1
RESULT: 7.25% (inactive)

QUERY: And for c1ccc2c(c1)CCCC2C1=NCCN1 (configuration not stated) ?
RESULT: -0.4% (inactive)

QUERY: Param item: COc1cc2nc(Cl)nc(N)c2cc1OC
RESULT: 2.8% (inactive)

QUERY: Likewise for O=C(CO)[C@@H](O)[C@H](O)[C@@H](O)C(=O)O ?
RESULT: 0.7% (inactive)

QUERY: Now give it for CCCCOC(=O)CC(CC(=O)OCCCC)(OC(C)=O)C(=O)OCCCC too.
RESULT: 6.2% (inactive)

QUERY: Further, for CCOC(=O)C1=C(C)NC(C)=C(C(=O)OC)C1c1cccc([N+](=O)[O-])c1 (configuration not stated) ?
RESULT: 2.2% (inactive)

QUERY: Then what about the compound Nc1nc(N)c2nc(-c3ccccc3)c(N)nc2n1 ?
RESULT: -0.7% (inactive)

QUERY: What do you have for Oc1ccc(Cl)cc1Sc1cc(Cl)ccc1O ?
RESULT: 4.5% (inactive)

QUERY: And the next one, Cc1cn([C@H]2C[C@H](N=[N+]=[N-])[C@@H](CO)O2)c(=O)[nH]c1=O ?
RESULT: -1.7% (inactive)

QUERY: What would you report for N[C@@H](Cc1cc(I)c(Oc2cc(I)c(O)c(I)c2)c(I)c1)C(=O)O ?
RESULT: 1.4% (inactive)

QUERY: Now the compound NS(=O)(=O)c1cc2c(cc1Cl)NC=NS2(=O)=O
RESULT: -0.7% (inactive)

QUERY: CC(NC(CCc1ccccc1)C(=O)O)C(=O)N1C(=O)N(C)CC1C(=O)O (configuration not stated) , same question.
RESULT: 5.3% (inactive)

QUERY: Proceed to Cc1oc(=O)oc1COC(=O)[C@@H]1N2C(=O)[C@@H](NC(=O)[C@H](N)c3ccccc3)[C@H]2SC1(C)C
RESULT: -1% (inactive)

QUERY: Then c1ccc(-c2ccc(C(c3ccccc3)n3ccnc3)cc2)cc1 (configuration not stated) ?
RESULT: 0.3% (inactive)

QUERY: Also check Cc1cccc(N(C)C(=S)Oc2ccc3c(c2)C2CCC3C2)c1 (configuration not stated)
RESULT: 1% (inactive)

QUERY: What about this compound? CCc1cc(C(N)=S)ccn1
RESULT: 1% (inactive)

QUERY: Now this one: CCCCCCCCCCCCCC[N+](C)(C)C
RESULT: -0.2% (inactive)

QUERY: Also CC(=O)O[C@H]1C[C@@H]2CC[C@H]3[C@H]4C[C@H]([N+]5(C)CCCCC5)[C@@H](OC(C)=O)[C@@]4(C)CC[C@@H]3[C@@]2(C)C[C@H]1[N+]1(C)CCCCC1 , if possible.
RESULT: -1.1% (inactive)

QUERY: Next up: CC(=O)N[C@@H](CO)C(=O)N[C@@H](CC(=O)O)C(=O)N[C@@H](CCCCN)C(=O)N1CCC[C@H]1C(=O)O (Ac-SDKP-OH)
RESULT: 1.8% (inactive)

QUERY: Same lookup for CC(=O)OCC(=O)[C@@]1(O)CC[C@H]2[C@@H]3CCC4=CC(=O)C=C[C@]4(C)[C@H]3[C@@H](O)C[C@@]21C , please.
RESULT: 1% (inactive)

QUERY: Next entry: Nc1nc2ccc(OC(F)(F)F)cc2s1
RESULT: -2.4% (inactive)

QUERY: Now consider CS(=O)(=O)OCCCCOS(C)(=O)=O and answer again.
RESULT: 0.2% (inactive)

QUERY: Now the compound CC1(C)O[C@@H]2C[C@H]3[C@@H]4CCC5=CC(=O)C=C[C@]5(C)[C@@H]4[C@@H](O)C[C@]3(C)[C@]2(C(=O)CO)O1
RESULT: -1% (inactive)

QUERY: Same read-out for COc1ccc([C@@H]2Sc3ccccc3N(CCN(C)C)C(=O)[C@@H]2OC(C)=O)cc1 ?
RESULT: 1.15% (inactive)

QUERY: Please do the same for CC1CN(c2cc3c(cc2F)c(=O)c(C(=O)O)cn3-c2ccc(F)cc2F)CCN1 (configuration not stated) as well.
RESULT: 2.1% (inactive)

QUERY: Also need CSCC[C@H](N)C(=O)O , thanks.
RESULT: 0.5% (inactive)
